# Test system: MDA-MB-231
# assay-remarks: Cancer cell viability assay (MTT), MDA-MB-231
# Format: cell-based
# stated-conditions: Homo sapiens, 72 hrs, 10% FBS media
Known pIC50 of a selection of compounds
Scale for pIC50: -log10 of concentration given in mol/L; no unit attached.

Observe how each entry below is paired with its result.
compound	observed
COc1ccc([N+](=O)[O-])c(S(=O)(=O)C2CCOCC2)n1	5.12
COc1ccc([N+](=O)[O-])c(S(=O)(=O)C2CCN(C(C)=O)CC2)n1	5.00
COc1ccc([N+](=O)[O-])c([S+]([O-])C2CCOC2C)n1 (stereo not drawn)	5.45

Param readout = pIC50; param system = MDA-MB-231; param query = COc1ccc([N+](=O)[O-])c([S+]([O-])C2CCN(C(C)=O)CC2)n1 (stereo not drawn) ; response: value
4.94

Quick check: pIC50 on MDA-MB-231, item COc1ccc([N+](=O)[O-])c(S(=O)(=O)C2CCOC2C)n1 (stereo not drawn) ?
5.05

Return pIC50 measured with MDA-MB-231 given this compound: COc1ccc([N+](=O)[O-])c([S+]([O-])C2CCOCC2)n1 (stereo not drawn)
5.45
